B1: WSC02 [human] / CXCR4 wt (transfected 293T cells) [human] (parent complex)
chain 1: IVRWSKKVPCVS
chain 2: MEGISIYTSDNYTEEMGSGDYDSMKEPCFREENANFNKIFLPTIYSIIFLTGIVGNGLVILVMGYQKKLRSMTDKYRLHLSVADLLFVITLPFWAVDAVANWYFGNFLCKAVHVIYTVNLYSSVLILAFISLDRYLAIVHATNSQRPRKLLAEKVVYVGVWIPALLLTIPDFIFANVSEADDRYICDRFYPNDLWVVVFQFQHIMVGLILPGIVILSCYCIIISKLSHSKGHQKRKALKTTVILILAFFACWLPYYIGISIDSFILLEIIKQGCEFENTVHKWISITEALAFFHCCLNPILYAFLGAKFKTSAQHALTSVSRGSSLKILSKGKRGGHSSVSTESESSSFHSS

Variants of: B1
TEST SUMMARY: 12G5 antibody competition assay, flow cytometry on transfected 293T cells; 2 h incubation; IC50 set to 1000 µM if above the maximally used concentration; parent: 1e+03 nM; read off a plot
The reader will find reported IC50 values listed item by item below.

Sample records with IC50:
chain 2 D97E ... ~8 µM
chain 2 L41A, chain 2 V112A ... ~4.8 µM

Let's switch to this variant now.
Which value of IC50 has been reported for chain 2 D97E, chain 2 V112L in the records?
~1.7 µM
